assayedSystem: T1, cynomolgus monkey DLL3 extracellular domain (ECD) with C-terminal 8xHis tag and Avi tag (cynomolgus monkey, UniProt A0A2K5WSR1 27-490)
T1 construct: extracellular domain; Expressed in Expi293, purified by IMAC and SEC; also called cynoDLL3; cyno DLL3; not shown: Avi tag
T1 sequence: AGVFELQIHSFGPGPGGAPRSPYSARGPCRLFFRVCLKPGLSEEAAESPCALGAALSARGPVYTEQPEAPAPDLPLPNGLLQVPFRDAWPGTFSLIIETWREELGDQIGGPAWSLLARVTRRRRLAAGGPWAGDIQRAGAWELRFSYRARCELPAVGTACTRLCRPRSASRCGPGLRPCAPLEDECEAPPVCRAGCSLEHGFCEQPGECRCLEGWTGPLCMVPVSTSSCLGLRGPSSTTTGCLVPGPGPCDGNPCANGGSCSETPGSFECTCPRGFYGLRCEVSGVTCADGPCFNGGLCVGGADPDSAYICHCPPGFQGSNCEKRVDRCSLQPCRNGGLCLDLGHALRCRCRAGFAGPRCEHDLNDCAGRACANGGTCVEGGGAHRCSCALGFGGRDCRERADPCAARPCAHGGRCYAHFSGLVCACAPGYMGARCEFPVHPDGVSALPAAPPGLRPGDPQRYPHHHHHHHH
protocolDetails: SPR (Biacore), 37 C; scFv-Fc captured on chip, cyno DLL3 ECD in solution; 1:1 Langmuir fit
readoutType: Kd (nM)
Field: numeric (nM). Do not append units.

See these solved cases before continuing.
binder: 4H8 scFv-Fc fusion (Fc fusion, not shown: a dimerising Fc or GST, scFv-Fc expressed in Expi293) scFv: QVQLQQSGPGLVKPSQTLSLTCAISGDSVSSNSATWNWIRQSPSRGLEWLGRTYYRSKWYDDYAVSVKSRITINPDTSKNHLSLHLNSVTPEDTAVYYCAGGGLVGAPDGFDVWGQGTMVTVSSGGGGSGGGGSGGGGSGGGGSQSVLTQPPSASGTPGQRVTISCSGSSSNIGSDPVNWYQQLPGTAPKLLIYSNNQRPSGVPDRFSGSKSGTSASLAISGLQSEDEADYYCSAWDDSLNGYVFGTGTKVTVL
readoutType: Kd
unitAbbrev: nM
observedMeasurement: 27
--
binder: 3F2 scFv-Fc fusion (Fc fusion, not shown: a dimerising Fc or GST, scFv-Fc expressed in Expi293) scFv: QVQLQESGPGLVKPSGTLSLTCAVSGGSISSNNWWSWVRQPPGKGLEWIGDIHHSGSTNYKPSLKSRVTISVDKSKNQFSLNLISVTAADTAVYYCAREAGGYFDYWGQGILVTVSSGGGGSGGGGSGGGGSGGGGSDIQMTQSPSTLSASVGDRVTITCRASQSISSWLAWYQQKPGKAPKLLISKASSLESGVPSRFSGSGSGPEFTLTISSLQPADFATYYCQQYNSYSTFGQGTKLEIK
readoutType: Kd
unitAbbrev: nM
observedMeasurement: 6.81

Query: Input 10G1-K scFv-Fc fusion (Fc fusion, not shown: a dimerising Fc or GST, scFv-Fc expressed in Expi293) scFv: EVQLLESGGGLVQPGGSLRLSCAASGFTFSSYAMNWVRQAPGKGLEWVSTISGSGGSTYYADSVKGRFTISRDNSKNTLYLQMNSLRAEDTAVFYCAIDPEYYDILTGGDYWGQGTLVTVSSGGGGSGGGGSGGGGSGGGGSDIQMTQSPSAMSASVGDRVTITCRASQGISNYLAWFQQKPGKVPKRLIYAASSLQSGVPSRFSGSGSGTEFTLTISSLQPEDFATYFCLQHDSFPLTFGGGTKVEIK , output reported Kd.
Result: 28.8
